assaySystem: Chemerin-like receptor 1 (Homo sapiens, UniProt Q99788)
Sequence (Q99788 whole entry): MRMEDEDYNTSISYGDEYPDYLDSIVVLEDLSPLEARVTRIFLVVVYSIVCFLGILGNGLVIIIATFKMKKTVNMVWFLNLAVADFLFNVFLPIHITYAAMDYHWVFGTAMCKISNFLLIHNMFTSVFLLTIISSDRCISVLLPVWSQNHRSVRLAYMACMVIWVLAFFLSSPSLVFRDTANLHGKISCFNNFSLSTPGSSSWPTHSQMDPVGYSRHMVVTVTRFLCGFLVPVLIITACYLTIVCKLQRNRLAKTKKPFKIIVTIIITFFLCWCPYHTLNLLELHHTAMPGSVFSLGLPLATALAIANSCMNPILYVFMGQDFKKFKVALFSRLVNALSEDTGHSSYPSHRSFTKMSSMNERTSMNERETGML
test: Displacement of [125I]-chemerin from ChemR23 (unknown origin) transfected in mouse BaF3 cells after 3 hrs by scintillation counting method
pIC50: −log10 of the molar value.
// reported pIC50 for each item listed

compound | assaySystem | pIC50
Cc1cccc(C)c1N1CC2(C(=O)Nc3cc(C(F)(F)F)cc(C(F)(F)F)c3)CC(F)(F)CC2C1=O (configuration not stated) | Chemerin-like receptor 1 (Homo sapiens, UniProt Q99788) | ≥ 7.52
CCc1cccc(NC(=O)C2CC(=O)N(c3c(C)cccc3C)C2)c1 (configuration not stated) | Chemerin-like receptor 1 (Homo sapiens, UniProt Q99788) | 5.22 to 6.52
Cc1cccc(C)c1N1C[C@@](CN(C)C2CCC2)(C(=O)Nc2cc(C(F)(F)F)cc(C(F)(F)F)c2)[C@H](C)C1=O | Chemerin-like receptor 1 (Homo sapiens, UniProt Q99788) | ≥ 7.52
Cc1cccc(C)c1N1CC2(C(=O)Nc3cc(C(F)(F)F)cc(C(F)(F)F)c3)CC(N3CCCC3)CC2C1=O (configuration not stated) | Chemerin-like receptor 1 (Homo sapiens, UniProt Q99788) | 6.52 to 7.52
Cc1cccc(C)c1N1CC(C(=O)Nc2cc(C(F)(F)F)cc(C(F)(F)F)c2)(C(C)(C)O)CC1=O (configuration not stated) | Chemerin-like receptor 1 (Homo sapiens, UniProt Q99788) | ≥ 7.52
CC(C)C1(C(=O)Nc2cc(C(F)(F)F)cc(C(F)(F)F)c2)CC(=O)N(c2ccccc2CN2CCOCC2)C1 (configuration not stated) | Chemerin-like receptor 1 (Homo sapiens, UniProt Q99788) | 5.22 to 6.52
Cc1cccc(C)c1N1C[C@@](CN2CCO[C@H](C)C2)(C(=O)Nc2cc(C#N)cc(C(F)(F)F)c2)[C@H](C)C1=O | Chemerin-like receptor 1 (Homo sapiens, UniProt Q99788) | 6.52 to 7.52
Cc1cccc(C)c1N1C[C@@](CN(C)CC(F)F)(C(=O)Nc2cc(C(F)(F)F)cc(C(F)(F)F)c2)[C@H](C)C1=O | Chemerin-like receptor 1 (Homo sapiens, UniProt Q99788) | ≥ 7.52
Cc1cccc(C)c1N1C[C@@](CN(C)CC(C)C)(C(=O)Nc2cc(C(F)F)cc(C(F)(F)F)c2)[C@H](C)C1=O | Chemerin-like receptor 1 (Homo sapiens, UniProt Q99788) | ≥ 7.52
CC[C@@]1(C(=O)Nc2cc(C(F)(F)F)cc(C(F)(F)F)c2)CN(c2c(C)cccc2C)C(=O)[C@H]1OC | Chemerin-like receptor 1 (Homo sapiens, UniProt Q99788) | ≥ 7.52
Cc1cccc(C)c1N1CC(C(=O)Nc2cc(C(F)(F)F)cc(C(F)(F)F)c2)(C2CCOCC2)CC1=O (configuration not stated) | Chemerin-like receptor 1 (Homo sapiens, UniProt Q99788) | ≥ 7.52
CC[C@@]1(C(=O)Nc2cc(Cl)cc(C#N)c2)CN(c2c(C)cccc2C)C(=O)[C@H]1C | Chemerin-like receptor 1 (Homo sapiens, UniProt Q99788) | 6.52 to 7.52
Cc1cccc(C)c1N1C[C@]2(C(=O)Nc3cc(C(F)(F)F)cc(C(F)(F)F)c3)CCO[C@@H]2C1=O | Chemerin-like receptor 1 (Homo sapiens, UniProt Q99788) | ≥ 7.52
COCC1(C(=O)Nc2cc(C(F)(F)F)cc(C(F)(F)F)c2)CC(=O)N(c2c(C)cccc2C)C1 (configuration not stated) | Chemerin-like receptor 1 (Homo sapiens, UniProt Q99788) | ≥ 7.52
Cc1cccc(C)c1N1CC(C(=O)Nc2cc(Cl)cc(C#N)c2)CC1=O (configuration not stated) | Chemerin-like receptor 1 (Homo sapiens, UniProt Q99788) | 5.22 to 6.52
CCN(CC)C[C@@]1(C(=O)Nc2cc(C#N)cc(C(F)(F)F)c2)CN(c2c(C)cccc2C)C(=O)[C@H]1C | Chemerin-like receptor 1 (Homo sapiens, UniProt Q99788) | ≥ 7.52
COC1CCN(C[C@@]2(C(=O)Nc3cc(C#N)cc(C(F)(F)F)c3)CN(c3c(C)cccc3C)C(=O)[C@H]2C)CC1 | Chemerin-like receptor 1 (Homo sapiens, UniProt Q99788) | 6.52 to 7.52

---

Each entry below carries its reported IC50.
assaySystem: Chemerin-like receptor 1 (Homo sapiens, UniProt Q99788)
test: Displacement of [125I]-chemerin from ChemR23 (unknown origin) transfected in mouse BaF3 cells after 3 hrs by scintillation counting method
measureName: IC50

compound | measureName | measuredValue
Cc1cccc(C)c1N1CC(C(=O)Nc2cc(Cl)cc(Cl)c2)CC1=O (stereo not drawn) | IC50 | 30 to 300 nM
CCC1(C(=O)Nc2cccc(C(F)(F)F)c2)CC(=O)N(c2c(C)cccc2C)C1 (stereo not drawn) | IC50 | 300 to 6000 nM
COCCN(C)C[C@@]1(C(=O)Nc2cc(C(F)(F)F)cc(C(F)(F)F)c2)CN(c2c(C)cccc2C)C(=O)[C@H]1C | IC50 | 30 to 300 nM
Cc1cccc(C)c1N1C[C@@](CN2CCC(F)(F)C2)(C(=O)Nc2cc(C3CC3)cc(C(F)(F)F)c2)[C@H](C)C1=O | IC50 | 30 to 300 nM
Cc1cccc(C)c1N1C[C@@](CN(C)CC2CCC2)(C(=O)Nc2cc(C(F)(F)F)cc(C(F)(F)F)c2)[C@H](C)C1=O | IC50 | 30 to 300 nM
Cc1cccc(C)c1N1CC2(C(=O)Nc3cc(C(F)(F)F)cc(C(F)(F)F)c3)COCC2C1=O (stereo not drawn) | IC50 | 30 to 300 nM
CCN(CC)C[C@@]1(C(=O)Nc2cc(OC(C)C)cc(C(F)(F)F)c2)CN(c2c(C)cccc2C)C(=O)[C@H]1C | IC50 | 30 to 300 nM
Cc1cccc(C)c1N1CC2(C(=O)Nc3cc(C(F)(F)F)cc(C(F)(F)F)c3)CCCCC2C1=O (stereo not drawn) | IC50 | 30 to 300 nM
Cc1cccc(C)c1N1C[C@]2(C(=O)Nc3cc(C(F)(F)F)cc(C(F)(F)F)c3)CC[C@@H]2C1=O | IC50 | ≤ 30 nM
CC[C@@]1(C(=O)Nc2cc(CN3CCOCC3)cc(C(F)(F)F)c2)CN(c2c(C)cccc2C)C(=O)[C@H]1C | IC50 | 300 to 6000 nM
CO[C@H]1CC2C(=O)N(c3c(C)cccc3C)CC2(C(=O)Nc2cc(C(F)(F)F)cc(C(F)(F)F)c2)C1 (stereo partly drawn) | IC50 | ≤ 30 nM
CC[C@@]1(C(=O)Nc2cc(C(F)(F)F)cc(C(F)(F)F)c2)CN(c2c(C)cccc2C)C(=O)[C@H]1C | IC50 | 30 to 300 nM
COc1cccc(C)c1N1CC(C(=O)Nc2cc(F)cc(F)c2)CC1=O (stereo not drawn) | IC50 | 30 to 300 nM
COCc1cccc(C)c1N1C[C@](C(=O)Nc2cc(C(F)(F)F)cc(C(F)(F)F)c2)(C(C)C)CC1=O | IC50 | 30 to 300 nM
CCc1cccc(C)c1N1CC(C(=O)Nc2cccc(Cl)c2)CC1=O (stereo not drawn) | IC50 | 300 to 6000 nM
Cc1cc(F)cc(C)c1N1CC(C(=O)Nc2cc(C(F)(F)F)cc(C(F)(F)F)c2)CC1=O (stereo not drawn) | IC50 | 30 to 300 nM
CCN(C[C@@]1(C(=O)Nc2cc(C#N)cc(C(F)(F)F)c2)CN(c2c(C)cccc2C)C(=O)[C@H]1C)C(C)C | IC50 | ≤ 30 nM
Cc1cccc(C)c1N1C[C@@](CN2CCCCC2)(C(=O)Nc2cc(C3CC3)cc(C(F)(F)F)c2)[C@H](C)C1=O | IC50 | 30 to 300 nM
Cc1cccc(C)c1N1CC(C(=O)Nc2cc(C(F)(F)F)cc(C(F)(F)F)c2)(C2CCN(C)CC2)CC1=O (stereo not drawn) | IC50 | 300 to 6000 nM
Cc1cccc(C)c1N1CC(C(=O)Nc2cc(C(F)(F)F)cc(C(F)(F)F)c2)(C2=CCN(C)CC2)CC1=O (stereo not drawn) | IC50 | 30 to 300 nM
Cc1cccc(C)c1N1C[C@@](CN(C)CC(C)C)(C(=O)Nc2cc(OC(C)C)cc(C(F)(F)F)c2)[C@H](C)C1=O | IC50 | ≤ 30 nM
Cc1cccc(C)c1N1C[C@](C(=O)Nc2cc(C(F)(F)F)cc(C(F)(F)F)c2)(C2CCOCC2)[C@@H](C)C1=O | IC50 | 30 to 300 nM
CCCCC1(C(=O)Nc2cc(C(F)(F)F)cc(C(F)(F)F)c2)CC(=O)N(c2c(C)cccc2C)C1 (stereo not drawn) | IC50 | ≤ 30 nM
Cc1cccc(C)c1N1CC(C(=O)Nc2cc(Cl)cc(C(F)(F)F)c2)CC1=O (stereo not drawn) | IC50 | 30 to 300 nM
Cc1cccc(C)c1N1C[C@@](CN2CCCCC2)(C(=O)Nc2cc(C(F)(F)F)cc(C(F)(F)F)c2)[C@H](C)C1=O | IC50 | 300 to 6000 nM
Cc1cccc(C)c1N1C[C@@](CN(C)CC(F)(F)F)(C(=O)Nc2cc(C#N)cc(C(F)(F)F)c2)[C@H](C)C1=O | IC50 | ≤ 30 nM
Cc1cccc(C)c1N1CC(CN(C)C)(C(=O)Nc2cc(C(F)(F)F)cc(C(F)(F)F)c2)CC1=O (stereo not drawn) | IC50 | 30 to 300 nM
Cc1cccc(C)c1N1CC(C)(C(=O)Nc2cc(C(F)(F)F)cc(C(F)(F)F)c2)CC1=O (stereo not drawn) | IC50 | ≤ 30 nM
Cc1cccc(C)c1N1C[C@](C(=O)Nc2cc(C#N)cc(C(F)(F)F)c2)(C(C)C)CC1=O | IC50 | ≤ 30 nM
Cc1cccc(C)c1N1CC(C(=O)Nc2cc(C(F)(F)F)cc(C(F)(F)F)c2)(C(C)O)CC1=O (stereo not drawn) | IC50 | 30 to 300 nM
Cc1cccc(C)c1N1CC(C(=O)Nc2cc(Br)cc(C(F)(F)F)c2)(C(C)C)CC1=O (stereo not drawn) | IC50 | ≤ 30 nM
CC[C@@]1(C(=O)Nc2cc(CN3CCCC3C(F)(F)F)cc(C(F)(F)F)c2)CN(c2c(C)cccc2C)C(=O)[C@H]1C (stereo partly drawn) | IC50 | ≤ 30 nM
CC(C)c1ccccc1N1CC(C(=O)Nc2cc(C(F)(F)F)cc(C(F)(F)F)c2)CC1=O (stereo not drawn) | IC50 | 30 to 300 nM
